Tested on: A375
Assay: MTT cell viability assay, A375 malignant melanoma cells
Type: cell-based, human
Conditions: IC50 HaCaT / IC50 A375, 24 h
Quick list: Selectivity Index (SI) per entry.
// response body must contain only the number

Observe how each entry below is paired with its result.
CC1(C)CCC2(C(=O)O)CCC3(C)C(=CCC4C5(C)CCC(OC6OC(C(=O)O)C(O)C(O)C6O)C(C)(C)C5CCC43C)C2C1 (centres unmarked)
2.9
CC1(C)CC[C@]2(C(=O)O)CC[C@]3(C)C(=CC[C@@H]4[C@@]5(C)CC[C@H](O)C(C)(C)[C@@H]5CC[C@]43C)[C@@H]2C1
5.2
COc1cccc2c1C(=O)c1c(O)c3c(c(O)c1C2=O)C[C@@](O)(C(=O)CO)C[C@@H]3O[C@H]1C[C@H](N)[C@H](O)[C@H](C)O1
7.9
CC1(C)CCC2(C(=O)O)CCC3(C)C(=CCC4C5(C)CCC(OC6OC(C(=O)O)C(O)C(OC7OCC(O)C(O)C7O)C6O)C(C)(C)C5CCC43C)C2C1 (centres unmarked)
2.7

Query :: # return recorded Selectivity Index (SI) for input "CC1(C)CC[C@]2(C(=O)O[C@@H]3O[C@H](CO)[C@@H](O)[C@H](O)[C@H]3O)CC[C@]3(C)C(=CC[C@@H]4[C@@]5(C)CC[C@H](O[C@@H]6O[C@H](C(=O)O)[C@@H](O)[C@H](O)[C@H]6O)C(C)(C)[C@@H]5CC[C@]43C)[C@@H]2C1"
Result :: 4.6

====

Tested on: WM793
Assay: MTT cell viability assay, WM793 primary melanoma cells
Type: cell-based, human
Conditions: Homo sapiens, WM793, 24 h
Quick list: IC50 per entry.

CC1(C)CCC2(C(=O)O)CCC3(C)C(=CCC4C5(C)CCC(OC6OC(C(=O)O)C(O)C(O)C6O)C(C)(C)C5CCC43C)C2C1 (centres unmarked) [CE]
2.4 µg/mL
CC1(C)CC[C@]2(C(=O)O[C@@H]3O[C@H](CO)[C@@H](O)[C@H](O)[C@H]3O)CC[C@]3(C)C(=CC[C@@H]4[C@@]5(C)CC[C@H](O[C@@H]6O[C@H](C(=O)O)[C@@H](O)[C@H](O)[C@H]6O)C(C)(C)[C@@H]5CC[C@]43C)[C@@H]2C1 [ChIVa]
18.5 µg/mL
COc1cccc2c1C(=O)c1c(O)c3c(c(O)c1C2=O)C[C@@](O)(C(=O)CO)C[C@@H]3O[C@H]1C[C@H](N)[C@H](O)[C@H](C)O1 [DOX, Doxorubicin]
> 40 µg/mL

Query :: # return recorded IC50 for input CC1(C)CC[C@]2(C(=O)O)CC[C@]3(C)C(=CC[C@@H]4[C@@]5(C)CC[C@H](O)C(C)(C)[C@@H]5CC[C@]43C)[C@@H]2C1 [OA, oleanolic acid]
Result :: 2.8 µg/mL

Query :: # return recorded IC50 for input CC1(C)CCC2(C(=O)O)CCC3(C)C(=CCC4C5(C)CCC(OC6OC(C(=O)O)C(O)C(OC7OCC(O)C(O)C7O)C6O)C(C)(C)C5CCC43C)C2C1 (centres unmarked) [MIc]
Result :: 2 µg/mL

====

Quick list: IC50 per entry.
Tested on: MDA-MB-231
Assay: MTT cell viability assay, MDA-MB-231 breast adenocarcinoma cells
Type: cell-based
Details: Homo sapiens, MDA-MB-231, 48 h
Your answer should be a plain number; it is taken to be in µg/mL.

Observe how each entry below is paired with its result.
CC1(C)CC[C@]2(C(=O)O[C@@H]3O[C@H](CO)[C@@H](O)[C@H](O)[C@H]3O)CC[C@]3(C)C(=CC[C@@H]4[C@@]5(C)CC[C@H](O[C@@H]6O[C@H](C(=O)O)[C@@H](O)[C@H](O)[C@H]6O)C(C)(C)[C@@H]5CC[C@]43C)[C@@H]2C1 [ChIVa]
98.1
CC1(C)CCC2(C(=O)O)CCC3(C)C(=CCC4C5(C)CCC(OC6OC(C(=O)O)C(O)C(OC7OCC(O)C(O)C7O)C6O)C(C)(C)C5CCC43C)C2C1 (stereo not shown) [MIc]
16.4

Query :: # return recorded IC50 for input CC1(C)CCC2(C(=O)O)CCC3(C)C(=CCC4C5(C)CCC(OC6OC(C(=O)O)C(O)C(O)C6O)C(C)(C)C5CCC43C)C2C1 (stereo not shown) [CE]
Result :: 23.5

Query :: # return recorded IC50 for input CC1(C)CC[C@]2(C(=O)O)CC[C@]3(C)C(=CC[C@@H]4[C@@]5(C)CC[C@H](O)C(C)(C)[C@@H]5CC[C@]43C)[C@@H]2C1 [OA, oleanolic acid]
Result :: 38.5

====

Test system: HT29
Assay: MTT cell viability assay, HT29 colorectal adenocarcinoma cells
Format: cell-based
Settings: Homo sapiens, HT-29; HT29, 48 h
Result Type: IC50 (mg/L)
Your answer should be a plain number; it is taken to be in mg/L.

Observe how each entry below is paired with its result.
CC1(C)CCC2(C(=O)O)CCC3(C)C(=CCC4C5(C)CCC(OC6OC(C(=O)O)C(O)C(OC7OCC(O)C(O)C7O)C6O)C(C)(C)C5CCC43C)C2C1 (stereo not shown)
2.9
CC1(C)CC[C@]2(C(=O)O[C@@H]3O[C@H](CO)[C@@H](O)[C@H](O)[C@H]3O)CC[C@]3(C)C(=CC[C@@H]4[C@@]5(C)CC[C@H](O[C@@H]6O[C@H](C(=O)O)[C@@H](O)[C@H](O)[C@H]6O)C(C)(C)[C@@H]5CC[C@]43C)[C@@H]2C1
5.6

Query :: # return recorded IC50 for input CC1(C)CCC2(C(=O)O)CCC3(C)C(=CCC4C5(C)CCC(OC6OC(C(=O)O)C(O)C(O)C6O)C(C)(C)C5CCC43C)C2C1 (stereo not shown)
Result :: 2
